System: A549/ATCC NSCLC
Assay Notes: NCI-60 one-dose screen, 48 h
Condition Context: 10 µM unless noted
About 83,000 compounds went through this panel and 20% of them were active in at least one assay; those are over-represented in the sample as a whole. Activity calls are given as the source filed them. How the source made its calls: active means growth percent below 10; inactive means the rest.
Outcome codes: active, inactive

> print(dat)
                                    compound  class.name
 1            CC(C)N(Cc1ccccc1)c1c(Cl)ssc1=O    inactive
 2  CCCCCCCCCCCCC1CCCC(C)C1 (stereo not drawn)    inactive
 3  CCCCc1n(Cc2ccc3ccccc3c2)cc[n+]1Cc1ccc2ccccc2c1    inactive
 4  NS(=O)(=O)c1ccc(-n2ncc3c(NC4CCCCC4)ncnc32)cc1    inactive
 5  CC[C@@H](C)/C=C(C)/C=C/C(=O)c1c(O)c(-c2ccc(O)cc2)cn(OC2CC(=O)CCC(C)OC(=O)CC2O)c1=O (stereo partly drawn)    inactive
 6  CCOC(=O)C1=CCC(n2cc(C)c(=O)[nH]c2=O)O1 (stereo not drawn)    inactive
 7  Cc1ccc(NC(=O)c2sc3nc4c(cc3c2N)C(=O)CCC4)cc1    inactive
 8  CC(=O)N1N=C(c2ccc3c(c2)OCO3)CC1c1c(C)nn(-c2ccccc2)c1N(C)Cc1ccccc1 (stereo not drawn)    inactive
 9  O=C(Oc1cccc2ccccc12)c1ccccc1C(=O)c1ccccc1    inactive
10  OC(c1cc(-c2cccc(Cl)c2)nc2ccccc12)C1CCCCN1 (stereo not drawn)      active
11  Cc1cc(C)cc(S(=O)(=O)n2ccc(-c3ccc4c(c3)CCC(C)(C)O4)n2)c1    inactive
12  CC1CN(CC(O)c2ccc(Br)cc2)CCO1 (stereo not drawn)    inactive
13  COc1cc(C2=NN(C=O)C(c3cccc(Nc4ccnc5cc(Cl)ccc45)c3)C2)cc(OC)c1OC (stereo not drawn)    inactive
14  COc1cc(C2CC(c3ccc(C)cc3)=NN2C=O)ccc1OCCN(C)C (stereo not drawn)    inactive
15                  O=C1NCCc2c1noc2-c1ccccc1    inactive
16  COc1ccc(N2CCN(CC(=O)N3CCN(c4nnc(-c5ccccc5)c(-c5ccccc5)n4)CC3)CC2)cc1    inactive
17  CC[N+](CCCCCCCCCC[N+](CC)(c1ccccn1)c1ccccn1)(c1ccccn1)c1ccccn1      active
18     CCOC(=O)Nc1ccc2c3c(cccc13)-c1ccccc1-2    inactive
19  C/C(=C\CCc1ccoc1)CC/C=C(\C)CCCC1COC(=O)C1 (stereo not drawn)    inactive
20  Cc1ccccc1NC(=O)NC(CC(N)=O)c1ccc2c(c1)nc(-c1cccc(Oc3ccc(C(C)(C)C)cc3)c1)n2CCCN1CCCCC1C (stereo not drawn)    inactive
21    CC(=O)c1nn(-c2ccccc2)c(=Nc2ccccc2)cc1C    inactive
22  COC(=O)CC1=C(c2ccc([N+](=O)[O-])cc2)CCC1=O    inactive
23    COc1cc(-c2n[nH]nc2-c2ccccn2)cc(OC)c1OC    inactive

====

System: NCI-H23 lung
Assay Notes: NCI-60 one-dose screen, 48 h
Condition Context: 10 µM unless noted
This is part of a sample that, as a whole, favours compounds with a hit. Of some 83,000 tested, about 20% had one in any assay. The source made the active and inactive calls. Rule for the calls: active = growth percent below 10; inactive = the rest.
Possible outcomes: active, inactive

> print(dat)
                                   compound  class.name
1         O[N+]1=CC=CCC1=S.On1ccccc1=S.[Zn]      active
2  NC(=O)NS(=O)(=O)c1ccc(N2N=C(C(F)(F)F)CC2c2cc(C(F)(F)F)cc(C(F)(F)F)c2)cc1 (centres undefined)    inactive
3  Cc1[nH]c(=O)[nH]c(=O)c1CCSSCCc1c(C)[nH]c(=O)[nH]c1=O    inactive
4  CCCCN=C(N)c1ccc(OCCSCCOc2ccc(C(N)=NCCCC)cc2)cc1    inactive
5  COc1ccc(NC(=O)c2ccccc2-c2ccccc2)c(C(N)=O)c1    inactive
6  CCOC(=O)CNC(=O)C1(NC(=O)CNC(=O)OCc2ccccc2)CCCC1    inactive
7  COC(=O)[C@H](CCCCNC(=O)OCc1ccccc1)NC(=O)[C@@H](NC(=O)Nc1cc(C(F)(F)F)cc(C(F)(F)F)c1)C(C)C      active
8  COc1ccc(-c2cc(-c3nnc(SCC(=O)Nc4ccc(C(C)=O)cc4)n3-c3ccccc3)c3ccccc3n2)cc1OC    inactive
9  Cc1onc(-c2ccccc2Cl)c1C(=O)N[C@@H]1C(=O)N2[C@@H]1SC(C)(C)[C@@H]2C(=O)O    inactive

Source: PubChem BioAssay (NCI)
